# inhibition at 0.001 µM per entry
target: CYP17 (human testicular microsome) (Homo sapiens); construct: using microsomal fraction from human testis (Celsis Cat #S00110) as the enzyme source; tissue Celsis S00110; host or cells: human testis microsomal fraction; assay: CYP17 enzymatic assay (% inhibition at 1 nM) (Biological Example 12); assay type: biochemical; details: compound at 1 nM, read-out: CYP17 enzymatic assay % inhibition at 1 nM (Biological Example No. 12)
Sequence (P05093 whole entry): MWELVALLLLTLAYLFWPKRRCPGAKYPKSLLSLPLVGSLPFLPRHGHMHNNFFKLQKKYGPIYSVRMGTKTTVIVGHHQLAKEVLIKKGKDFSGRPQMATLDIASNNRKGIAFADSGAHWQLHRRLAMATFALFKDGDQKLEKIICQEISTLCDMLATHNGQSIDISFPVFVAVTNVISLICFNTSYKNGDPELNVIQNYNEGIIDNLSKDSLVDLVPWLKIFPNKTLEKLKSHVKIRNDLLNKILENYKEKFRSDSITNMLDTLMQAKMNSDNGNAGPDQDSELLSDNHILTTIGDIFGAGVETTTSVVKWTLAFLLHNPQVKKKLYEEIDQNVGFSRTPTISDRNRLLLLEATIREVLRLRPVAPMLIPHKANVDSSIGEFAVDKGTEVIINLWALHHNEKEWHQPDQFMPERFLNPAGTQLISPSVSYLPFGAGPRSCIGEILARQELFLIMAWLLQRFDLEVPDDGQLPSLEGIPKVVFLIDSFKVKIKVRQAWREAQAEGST

| molecule | assay.target | property.measured | recorded.result |
| --- | --- | --- | --- |
| CON=C1C=C2CCC3C4=CC=C(c5cccnc5)[C@@]4(C)CCC3[C@@]2(C)CC1 (stereo partly shown) | CYP17 (human testicular microsome) (Homo sapiens) | inhibition at 0.001 µM | 10 to 50% |
| CC(=O)N1CCC[C@@]2(C)[C@@H](CC[C@@H]3[C@@H]2CC[C@]2(C)C(n4ccnc4)=CC[C@@H]32)C1 | CYP17 (human testicular microsome) (Homo sapiens) | inhibition at 0.001 µM | 10 to 50% |
| C[C@]12CC[C@H](O)CC1CCC1C2CC[C@]2(C)C(c3ccc[n+]([O-])c3)CCC12 (stereo partly shown) | CYP17 (human testicular microsome) (Homo sapiens) | inhibition at 0.001 µM | 10 to 50% |

Record COC(=O)N[C@@H]1CC[C@@]2(C)C(CCC3C2CC[C@]2(C)C(c4cccnc4)=CCC32)C1 (stereo partly shown) , field inhibition at 0.001 µM: > 50%

# molecule `C[C@]12CC[C@H]3[C@@H](C=CC4=CC(=O)CC[C@@]43C)C1=CC=C2c1cccnc1` ; its inhibition at 0.001 µM = > 50%

Reported inhibition at 0.001 µM ( C[C@]12CC[C@@H](NC(=O)C(F)(F)F)CC1CCC1C2CC[C@]2(C)C(c3cccnc3)=CCC12 (stereo partly shown) ) = 10 to 50%

Notebook: Cc1cncc(C2=CC=C3[C@@H]4CCC5CNC(=O)CC[C@]5(C)[C@H]4CC[C@]23C)c1 (stereo partly shown) , inhibition at 0.001 µM read as 10 to 50%
